Organism: Homo sapiens
ASSAY_PROTOCOL: Inhibition of TCEP-treated human SOD1 G93A mutant aggregation at 50 uM measured after 24 hrs by thioflavin-T fluorescence assay relative to control
OUTCOME_MEASURE: inhibition

The cases that follow already have their inhibition on record.
1. CCn1c2ccccc2c2cc(NC(=O)NNC(=O)Nc3ccc(Cl)cc3)ccc21 ... 33.9%
2. CCn1c2ccccc2c2cc(NC(=O)NNC(=O)Nc3ccc(F)cc3)ccc21 ... 71.9%

Return reported inhibition; argument: "CCn1c2ccccc2c2cc(NC(=O)NNC(=S)NCCc3ccccc3)ccc21" 65.4%

inhibition lookup needed for "CCn1c2ccccc2c2cc(NC(=O)NNC(=S)Nc3ccc([N+](=O)[O-])cc3)ccc21" , thanks. 72.6%

Which value of inhibition has been reported for "CCn1c2ccccc2c2cc(NC(=O)NNC(=S)Nc3ccccc3)ccc21" in the records? 88.3%
